Provenance of the data: ChEMBL document CHEMBL1201862

- System: SF-295
- experiment_summary: NCI tumour cell line growth inhibition, 48 h
Active and inactive are the calls of the source. Rule as the data show it: active = GI50 up to about 1.1 µM and inactive = higher.
A correct response names exactly one class from y = active, n = inactive

[Q] Write down the call the test reported for this compound. Item: CC1=C(O)C(=O)[C@@H]2O[C@@H]2C1=O
[A] n

[Q] Hi, sorry to bother you, what did the test record for Oc1c(CN2CCOCC2)ccc(CN2CCOCC2)c1O ?
[A] n

---

- System: NCI-H460
- experiment_summary: NCI tumour cell line growth inhibition, 48 h
Calls of active or inactive are those of the source. No stated cut-off is given here; in the data, active = GI50 up to about 1.1 µM and inactive = higher.
measured_endpoint: GI50

Example cases with answers are listed next.
>  <compound>
C[C@@H]1[C@@H](C)C(c2ccccc2)O[Si]1(C(C)(C)C)C(C)(C)C (some centres undefined)

>  <measured_endpoint>
GI50

>  <meas_value>
17.4 µM (inactive)

$$$$
>  <compound>
O=C(O)c1c(CC(Cc2ccc3c(c2)CCC3)C(=O)O)ccc2c1CCC2 (centres undefined)

>  <measured_endpoint>
GI50

>  <meas_value>
> 100 µM (inactive)

$$$$
>  <compound>
O=C(CSc1nc(-c2ccccc2)c(-c2ccccc2)[nH]1)N/N=C/c1ccc([N+](=O)[O-])cc1

>  <measured_endpoint>
GI50

>  <meas_value>
19.4 µM (inactive)

$$$$

Lab note: CC(=O)OCC1(CNc2nc(N)ncc2C#N)CC(CCc2ccccc2)C1 (centres undefined) gave GI50 of 26.8 µM (inactive)

Looking up Cc1[nH]n(-c2nc(-c3ccccc3)cc(=O)[nH]2)c(=O)c1CCO , I see its GI50 listed as > 100 µM (inactive)

GI50 measured on CC1=C(O)C(=O)[C@@H]2O[C@@H]2C1=O = 19 µM (inactive)

Notebook: CCCCCCCC(=O)OC[n+]1cccc(-c2c(COC(=O)NC(C)C)c(COC(=O)NC(C)C)c3n2CCC3)c1 , GI50 read as 46.1 µM (inactive)

response.value for CC(=O)Nc1ccc(C(=O)NN2C(=O)C(Cl)C2c2cc(Br)cc(Br)c2O)cc1 (centres undefined) (field: GI50) = > 100 µM (inactive)

GI50 in this record for Cc1nc(Nc2ccccc2)sc1C(=O)NNC(N)=O : > 100 µM (inactive)
